Target protein (sequence): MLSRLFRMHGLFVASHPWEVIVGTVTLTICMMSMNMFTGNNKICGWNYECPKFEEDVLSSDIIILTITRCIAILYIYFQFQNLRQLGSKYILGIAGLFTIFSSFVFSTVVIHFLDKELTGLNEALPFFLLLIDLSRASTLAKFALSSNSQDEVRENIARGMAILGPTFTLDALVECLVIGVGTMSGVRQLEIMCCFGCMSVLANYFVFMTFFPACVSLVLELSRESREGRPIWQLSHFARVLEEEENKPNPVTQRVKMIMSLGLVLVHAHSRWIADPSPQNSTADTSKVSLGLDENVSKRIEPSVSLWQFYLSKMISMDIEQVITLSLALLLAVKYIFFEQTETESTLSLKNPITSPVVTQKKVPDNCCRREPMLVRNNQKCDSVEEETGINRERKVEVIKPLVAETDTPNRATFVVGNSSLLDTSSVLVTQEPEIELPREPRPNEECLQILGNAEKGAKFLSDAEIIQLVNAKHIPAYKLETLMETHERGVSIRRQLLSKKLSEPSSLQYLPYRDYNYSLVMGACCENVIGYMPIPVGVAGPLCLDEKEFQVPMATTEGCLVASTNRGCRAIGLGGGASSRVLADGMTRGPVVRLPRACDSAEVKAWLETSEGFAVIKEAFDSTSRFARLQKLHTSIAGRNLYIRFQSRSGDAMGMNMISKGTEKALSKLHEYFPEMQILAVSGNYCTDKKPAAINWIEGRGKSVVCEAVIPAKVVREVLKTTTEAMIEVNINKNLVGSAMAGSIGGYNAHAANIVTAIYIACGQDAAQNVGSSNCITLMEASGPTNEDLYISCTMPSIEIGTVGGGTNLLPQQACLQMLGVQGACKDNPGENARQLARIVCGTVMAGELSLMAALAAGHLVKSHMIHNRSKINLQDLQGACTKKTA
reported property: IC50 (nM)

{"columns": ["sample smiles", "measured"],
 "data": [
  ["CCC[C@@H]1CC[C@H](C)[C@H](CC[C@@H](O)C[C@@H](O)CC(=O)O)[C@H]1COC(=O)C(C)(C)CC", 8]
]}
